Tested on: metabotropic glutamate receptors
Experiment: displacement of 1S,3R-ACPD-sensitive [3H]glutamate binding to rat forebrain crude membranes
Conditions: 100 μM, mixture of enantiomers unless otherwise noted
result_type: Percent displacement of L-[3H]Glu (%)
Return type: number; implicit unit %.

Query: Percent displacement of L-[3H]Glu of N[C@@H](CC(Oc1ccc(C=Cc2ccc([N+](=O)[O-])cc2)cc1)C(=O)O)C(=O)O (stereo partly drawn) on metabotropic glutamate receptors?
Response: 92.1

Query: // same read-out, input: NC(CC(Sc1ccc2ccccc2c1)C(=O)O)C(=O)O (stereo not drawn)
Response: 100.6

Query: // same read-out, input: N[C@@H](C[C@H](Oc1ccc(-c2ccccc2)cc1)C(=O)O)C(=O)O
Response: 85.5

Query: // same read-out, input: N[C@@H](CC(Oc1ccc(C(F)(F)F)cc1)C(=O)O)C(=O)O (stereo partly drawn)
Response: 77.9

Query: // same read-out, input: N[C@@H](CC(Oc1ccc(CC=Cc2ccccc2)cc1)C(=O)O)C(=O)O (stereo partly drawn)
Response: 75.9

Query: // same read-out, input: N[C@@H](CC(Oc1ccc2ccccc2c1)C(=O)O)C(=O)O (stereo partly drawn)
Response: 95.9

Query: // same read-out, input: N[C@@H](CC(Oc1ccc(CCc2ccccc2)cc1)C(=O)O)C(=O)O (stereo partly drawn)
Response: 81.5

Query: // same read-out, input: N[C@@H](CC(Oc1ccc2c(c1)CCC2)C(=O)O)C(=O)O (stereo partly drawn)
Response: 97.8

Query: // same read-out, input: CC(=O)c1ccc(OC(CC(N)C(=O)O)C(=O)O)cc1 (stereo not drawn)
Response: 85.8

Query: // same read-out, input: N[C@@H](CC(Oc1cccc(-c2ccccc2)c1)C(=O)O)C(=O)O (stereo partly drawn)
Response: 81.6

Query: // same read-out, input: NC(CC(Sc1nncn1Cc1ccccc1)C(=O)O)C(=O)O (stereo not drawn)
Response: 81.3

Query: // same read-out, input: Cc1ccc(O[C@@H](C[C@H](N)C(=O)O)C(=O)O)cc1
Response: 103.2

Query: // same read-out, input: N[C@@H](CC(Oc1ccc2c(c1)Cc1ccccc1-2)C(=O)O)C(=O)O (stereo partly drawn)
Response: 93.7

Query: // same read-out, input: N[C@@H](CC(Oc1ccc(Oc2ccccc2)cc1)C(=O)O)C(=O)O (stereo partly drawn)
Response: 84.6

Query: // same read-out, input: N[C@@H](CC(Sc1n[nH]c(C=Cc2ccccc2Cl)n1)C(=O)O)C(=O)O (stereo partly drawn)
Response: 89.9

Query: // same read-out, input: NC(CC(Oc1ccc2oc3c(c2c1)CCCC3)C(=O)O)C(=O)O (stereo not drawn)
Response: 92.6

Query: // same read-out, input: CC(C)c1ccc(OC(C[C@H](N)C(=O)O)C(=O)O)cc1 (stereo partly drawn)
Response: 53.9

Query: // same read-out, input: N[C@@H](CC(Oc1ccc2sccc2c1)C(=O)O)C(=O)O (stereo partly drawn)
Response: 95.3

Query: // same read-out, input: NC(CC(Oc1ccc(CCCc2ccccc2)cc1)C(=O)O)C(=O)O (stereo not drawn)
Response: 75.9

Query: // same read-out, input: N[C@@H](CC(Oc1ccc2cc(Br)ccc2c1)C(=O)O)C(=O)O (stereo partly drawn)
Response: 93.9

Query: // same read-out, input: NC(CC(Oc1ccc(C(c2ccc(Cl)cc2)c2ccccn2)cc1)C(=O)O)C(=O)O (stereo not drawn)
Response: 92.4

====

Task for the reader: assign each of the following compounds its reported Percent displacement of L-[3H]Glu.
Tested on: metabotropic glutamate receptors
Assay: displacement of 1S,3R-ACPD-sensitive [3H]glutamate binding to rat forebrain crude membranes
Conditions: 100 μM, mixture of enantiomers unless otherwise noted
Description: The binding of [^3 H]glutamate was conducted with crude membranes of rat forebrain as described by Schoepp and True. Schoepp and True, Neuroscience Lett., 145, 100-104 (1992), True and Schoepp, Society for Neuroscience Abstracts, 19, 470 (1993) and Wright, McDonald and Schoepp, J. Neurochem. 63: 938-945, 1994.

Query: What value of Percent displacement of L-[3H]Glu has been recorded for this entry: Cc1ccccc1OC(C[C@H](N)C(=O)O)C(=O)O (some centres unmarked)
Response: 66.5%

Query: // same read-out, input: NC(CC(Oc1ccc(/C=C/c2ccccc2)cc1)C(=O)O)C(=O)O (centres unmarked)
Response: 91.9%

Query: // same read-out, input: Cc1cc2cc(OC(C[C@H](N)C(=O)O)C(=O)O)ccc2o1 (some centres unmarked)
Response: 90.1%

Query: // same read-out, input: N[C@@H](CC(Oc1ccc(OCc2ccccc2)cc1)C(=O)O)C(=O)O (some centres unmarked)
Response: 67.8%

Query: // same read-out, input: N[C@@H](CC(Oc1ccc(C2CCCC2)cc1)C(=O)O)C(=O)O (some centres unmarked)
Response: 72.0%

Query: // same read-out, input: N[C@@H](CC(Oc1ccccc1Cc1ccccc1)C(=O)O)C(=O)O (some centres unmarked)
Response: 85.9%

Query: // same read-out, input: N[C@@H](CC(Oc1ccc2cc(Br)ccc2c1Br)C(=O)O)C(=O)O (some centres unmarked)
Response: 99.5%

Query: // same read-out, input: CC1(C)CCC(C)(C)c2cc(OC(C[C@H](N)C(=O)O)C(=O)O)ccc21 (some centres unmarked)
Response: 66.5%

Query: // same read-out, input: N[C@@H](CC(Oc1ccccc1)C(=O)O)C(=O)O (some centres unmarked)
Response: 88.0%

Query: // same read-out, input: N[C@@H](CC(Oc1ccc(-c2ccccc2)cc1)C(=O)O)C(=O)O (some centres unmarked)
Response: 86.7%

Query: // same read-out, input: N[C@@H](CC(Oc1cccc2c1CCCC2)C(=O)O)C(=O)O (some centres unmarked)
Response: 82.1%

Ref: patent US5576323A
